- Test system: DeltatarO mutant
- experimentDescription: S. aureus survival, RN4220 and DeltatarO strains – OD600, teichoic acid synthesis inhibitors, primary screen (AID 463173)
- assayConditions: S. aureus RN4220 wild type/DeltatarO growth, OD600, 18 h, active compounds read low, screened at 18.75 µg/mL (by protocol)
Screen size: about 52,000 compounds; about 4,300 (8.3%) were called active. Only a selection was taken, and actives are over-represented in it overall.
readoutKind: survival (%)
Quick note: give the figure in %, leave out the unit.

The examples below pair each entry with its known result.
| compound | unitAbbreviation | survival |
| --- | --- | --- |
| O=S(=O)(Nc1ccc(-c2ccc(N3CCCC3)nn2)cc1)c1cc(F)ccc1F | % | 96 |
| COc1ccc(-c2nnn(CC(=O)N(CC(=O)NCc3ccccc3)c3ccc4c(c3)OCCO4)n2)cc1OC | % | 69 |
| COc1ccccc1CNC(=O)CCn1c(=O)c2cccn2c2cccnc21 | % | 80 |
| CCC(C(=O)NC1CCCC1)N(C(=O)Cn1nnc(-c2ccc(C)cc2)n1)c1ccc2c(c1)OCCO2 (stereo unspecified) | % | 90 |
| Cc1ccc(CNC(=O)NCc2noc3ccc(C)cc23)cc1 | % | 47 |
| Cc1ccc(-c2noc(CNC(=O)c3ccc(C)c(Cl)c3)n2)cc1 | % | 49 |

# value lookup — system DeltatarO mutant, readout survival, item CCOc1ccc(C2N3CC4(C(C)C)CN2CC(C(C)C)(C3)C4=O)cc1OC (stereo unspecified) 91

Item O=C(NCc1ccccc1Br)c1cnc2sc(N3CCCCCC3)nn2c1=O with DeltatarO mutant - survival? 94

Hello, I am looking for reported survival with DeltatarO mutant for Cc1ccc(CC(=O)Nc2c(C(=O)N3CCN(c4ccccc4F)CC3)oc3ccccc23)cc1 . Could you help? 74

Record lookup: for DeltatarO mutant, what survival belongs to CC(C)C12CN3CC(C(C)C)(CN(C1)C3c1ccc(OCc3ccccc3)cc1)C2=O (stereo unspecified) ? 85

Test system DeltatarO mutant; read-out survival; what value for Cc1ccc(-c2noc(CNC(=O)c3ccccc3)n2)cc1 ? 63

# query: survival | item Cc1cc(C)cc(NC(=O)CCn2cnc3ccccc3c2=O)c1 | system: DeltatarO mutant 77

# get_value(readout= survival, system= DeltatarO mutant) for CCC(C(=O)NC1CCCC1)N(C(=O)Cn1nnc(-c2cccs2)n1)c1cnc2ccccc2c1 (stereo unspecified) 92

Reported survival for DeltatarO mutant, given S=C(Nc1ccccc1)N1CCOCC1 ? 89

Find the measured survival: item COc1ccc(OC)c(CNS(=O)(=O)c2ccc(-c3cc(C(F)(F)F)on3)s2)c1 , target or system DeltatarO mutant. -4

Requested read-out survival, target or system DeltatarO mutant, entry CCCCC(CC)CNC(=O)c1ccc2c(=O)n(Cc3ccc(OC)cc3)c(=O)[nH]c2c1 (stereo unspecified) 84

Reference source for all entries: PubChem BioAssay AID463173
